test system: PBMC; experiment: Cytotoxicity against human PBMC after 72 hrs by CellTiter-Glo luminescent cell viability assay; type: cell-based
pIC50: −log10 of the molar value.
Record form. Attribute: pIC50. Fill in for each entry.

Entry `N#C/C(=C\C1CC1)C(=O)N1CCC[C@@H](n2nc(C#CCOc3ccccc3)c3c(N)ncnc32)C1` has what pIC50? < 4.52

# get_value(readout='pIC50', item= `C#CC(=O)N1CCC[C@@H](n2nc(C#CCOc3ccccc3)c3c(N)ncnc32)C1` ) 5.39

I am curious: what pIC50 value has been reported for `C=CC(=O)N1CCC[C@@H](n2nc(C#CCOc3ccccc3)c3c(N)ncnc32)C1` ? < 4.52

====

target: Tyrosine-protein kinase BTK (Homo sapiens); test: Inhibition of recombinant full-length human N-terminal GST-fused BTK (2 to 659 residues) expressed in baculovirus expression system using biotin-labelled peptide as substrate measured after 50 mins by TR-FRET assay
Sequence (Q06187 whole entry, the tested form may be a part): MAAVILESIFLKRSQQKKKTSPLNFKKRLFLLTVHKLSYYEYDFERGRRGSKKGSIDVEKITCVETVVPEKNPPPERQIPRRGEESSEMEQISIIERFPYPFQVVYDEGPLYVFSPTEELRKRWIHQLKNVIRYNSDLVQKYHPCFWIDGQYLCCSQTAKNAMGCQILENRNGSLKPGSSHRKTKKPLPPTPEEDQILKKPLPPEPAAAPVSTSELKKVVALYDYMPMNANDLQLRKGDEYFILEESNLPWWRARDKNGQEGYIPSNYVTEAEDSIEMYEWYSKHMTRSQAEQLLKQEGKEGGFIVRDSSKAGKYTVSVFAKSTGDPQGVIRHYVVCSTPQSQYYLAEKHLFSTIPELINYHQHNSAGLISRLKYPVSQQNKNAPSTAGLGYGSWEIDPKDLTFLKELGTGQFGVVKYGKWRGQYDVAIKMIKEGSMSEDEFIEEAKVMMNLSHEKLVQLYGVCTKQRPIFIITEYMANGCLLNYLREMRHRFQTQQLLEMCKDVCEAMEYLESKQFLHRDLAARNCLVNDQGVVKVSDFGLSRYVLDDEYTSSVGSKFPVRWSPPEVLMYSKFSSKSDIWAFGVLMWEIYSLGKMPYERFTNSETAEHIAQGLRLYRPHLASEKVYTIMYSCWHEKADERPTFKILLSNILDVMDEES
value kind: pIC50
Formally, pIC50 is defined as -log10 of the concentration c, with c in mol/L.

What pIC50 value was documented for this molecule, `C#CC(=O)N1CCC[C@@H](n2nc(C#CCOc3ccccc3)c3c(N)ncnc32)C1` ? 7.95

Look up pIC50: `N#C/C(=C\C1CC1)C(=O)N1CCC[C@@H](n2nc(C#CCOc3ccccc3)c3c(N)ncnc32)C1` 7.95

Query (molecule): `CC(C)/C=C(\C#N)C(=O)N1CCC[C@@H](n2nc(C#CCOc3ccccc3)c3c(N)ncnc32)C1` ; field requested: pIC50 8.01

Endpoint output: pIC50 of `C=CC(=O)N[C@H]1CC[C@@H](n2nc(C#CCOc3ccccc3)c3c(N)ncnc32)CC1` . Value? 7.83

May I ask what pIC50 has been recorded for `C=CC(=O)N1CC[C@@H](n2nc(C#CCOc3ccccc3)c3c(N)ncnc32)C1` ? 7.73

Name the reported pIC50 value associated with the molecule `CC#CC(=O)N1CCC[C@@H](n2nc(C#CCOc3ccccc3)c3c(N)ncnc32)C1` 7.55

Request the reported pIC50 associated with `C=CS(=O)(=O)N1CCC[C@@H](n2nc(C#CCOc3ccccc3)c3c(N)ncnc32)C1` 8.38

// lookup pIC50 for `Nc1ncnc2c1c(C#CCOc1ccccc1)nn2[C@@H]1CCCN(C(=O)/C=C/CBr)C1` 7.88

Could you share which pIC50 value was measured for `C/C=C(\C#N)C(=O)N1CCC[C@@H](n2nc(C#CCOc3ccccc3)c3c(N)ncnc32)C1` ? 8.11

====

assay: Cytotoxicity against human PBMC assessed as inhibition of cell proliferation at 30 uM after 72 hrs by CellTiter-Glo luminescent cell viability assay relative to control; assay type: cell-based; conditions: PBMC (peripheral blood mononuclear cells)
value kind: inhibition at 72 h, 30 µM (%)
Quick note: give the figure in %, leave out the unit.

What measured inhibition at 72 h, 30 µM goes with `C=CC(=O)N1CCC[C@@H](n2nc(-c3ccc(Oc4ccccc4)cc3)c3c(N)ncnc32)C1` ? 69

====

biological target: UniProt Q06187; assay: Inhibition of recombinant full-length human N-terminal GST-fused BTK (2 to 659 residues) expressed in baculovirus expression system at 1 uM using biotin-labelled peptide as substrate measured after 50 mins by TR-FRET assay relative to control
For each record, write down the corresponding inhibition.
API: value field is a number in %; no unit string.

# input compound: `C=CC(=O)N1CCC[C@H]1Cn1nc(C#CCOc2ccccc2)c2c(N)ncnc21` ; wanted: its inhibition 42.9

Need inhibition, item `C=CC(=O)N[C@H]1CC[C@@H](n2nc(C#CCOc3ccccc3)c3c(N)ncnc32)CC1` 101

# lookup: inhibition of `C=CC(=O)N1CC[C@@H](n2nc(C#CCOc3ccccc3)c3c(N)ncnc32)C1` 96.1

Returns the measured inhibition for the input compound. Input: `C#CC(=O)N1CCC[C@@H](n2nc(C#CCOc3ccccc3)c3c(N)ncnc32)C1` 102

Tell me the measured inhibition of `Nc1ncnc2c1c(C#CCOc1ccccc1)nn2[C@@H]1CCCN(C(=O)/C=C/Cn2cncn2)C1` , please. 76.3

Look up inhibition: `C/C=C(\C#N)C(=O)N1CCC[C@@H](n2nc(C#CCOc3ccccc3)c3c(N)ncnc32)C1` 98.5

Which value of inhibition has been reported for `N#C/C(=C\C1CC1)C(=O)N1CCC[C@@H](n2nc(C#CCOc3ccccc3)c3c(N)ncnc32)C1` in the records? 97.1

Fill in: inhibition of `C=CC(=O)NCCn1nc(C#CCOc2ccccc2)c2c(N)ncnc21` is ___ 27.1

Look up inhibition: `C=C(F)C(=O)N1CCC[C@@H](n2nc(C#CCOc3ccccc3)c3c(N)ncnc32)C1` 73.8

Recorded inhibition for `C=CS(=O)(=O)N1CCC[C@@H](n2nc(C#CCOc3ccccc3)c3c(N)ncnc32)C1` , please? 104

Would you kindly share the measured inhibition for `Nc1ncnc2c1c(C#CCOc1ccccc1)nn2[C@@H]1CCCN(C(=O)/C=C/CN2CCOCC2)C1` ? 86.1

Look up inhibition: `C=CC(=O)N(C)CCn1nc(C#CCOc2ccccc2)c2c(N)ncnc21` 48.5

What value of inhibition has been reported for the following compound? `CC#CC(=O)N1CCC[C@@H](n2nc(C#CCOc3ccccc3)c3c(N)ncnc32)C1` 99.7

Value lookup for inhibition; key = `Nc1ncnc2c1c(C#CCOc1ccccc1)nn2[C@@H]1CCCN(C(=O)/C=C/CBr)C1` 92.2

// returns reported inhibition for input `CC(C)/C=C(\C#N)C(=O)N1CCC[C@@H](n2nc(C#CCOc3ccccc3)c3c(N)ncnc32)C1` 99.6
